B1: CPEB3 Ribozyme (parent)
chain: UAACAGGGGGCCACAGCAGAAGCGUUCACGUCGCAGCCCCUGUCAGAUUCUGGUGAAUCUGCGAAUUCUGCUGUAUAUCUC

variants of: B1; assay: self-cleavage, relative activity (ratio to wild type); higher = more cleavage; in vitro, sequencing
quantityKind: self-cleavage

The cases that follow already have their self-cleavage on record.
| inputSequence | obsValue |
| --- | --- |
| UAACAGGGGGCCACGGCAGAAGCGUUCACGUCGCAGCCCCUGUCAGAUUCUGGUGAAUCUGCGAAUUCUGCUGUAUAGCUC | 1.06 |
| UAACAGGGGGCCACAGCCGAAGCGUUCACGUCGCAGCCCCUGUCAGAUUCAGGUGAAUCUGCGAAUUCUGCUGUAUAUCUC | 0.42 |

// next item, self-cleavage requested
Kindly note the recorded self-cleavage for UAACAGGGGGCCACAGCAGAAGCGUUCACGUCGCAGCCCCAGUCAGAUUCUGGUGAAUCUGCGAAUUCUGGUGUAUAUCUC , which is 0.1

Reference for the values: the RNAGym collection of RNA variant scans (doi:10.1093/nar/gkz1192)
